Alveolar wall thickening Level 0 overview
# Test system: acute lung injury in mice induced by oleic acid
# experiment_notes: acute lung injury test in mouse (oleic acid-induced, histological grading of lung pathology)
# Assay type: in vivo, KM mice
# stated_conditions: number of mice (11 per group) at score 0 (No pathological change); 40 mg/kg in terms of free base, intravenously once a day for 4 times; oleic acid 300 mg/kg i.v.
Counter-ions that a name gives are not always drawn.
Returns: the value as a bare number; no unit string appended.

Recorded Alveolar wall thickening Level 0, per entry:
compound	Alveolar wall thickening Level 0
Nc1c(Br)cc(Br)cc1CN[C@@H]1[C@@H]2C[C@@H]3C[C@H]1C[C@@](O)(C3)C2 [Compound of Formula V, hydrochloride]	1
Nc1c(Br)cc(Br)cc1CN[C@@H]1[C@@H]2C[C@@H]3C[C@H]1C[C@@](O)(C3)C2 [Compound of Formula I]	1
Nc1c(Br)cc(Br)cc1CN[C@H]1CC[C@H](O)CC1 [Ambroxol hydrochloride]	2

Next item in the queue.
Exam item: // fetch acute lung injury in mice induced by oleic acid Alveolar wall thickening Level 0 for Cl.Nc1c(Br)cc(Br)cc1CNC1C2CC3CC1CC(O)(C3)C2 (racemic)
Marked response: 1
